Catalogue of Population Apoptotic (%) readings, one per entry.
- System: HEK-293T
- measurement.description: Multiplex assay against HEK293T
- Type: toxicity, cell-based
- recorded.conditions: human, 24 h, 1 µM, compound concentration 1 uM, replicate 2
metric.name: Population Apoptotic (%)

{"input.smiles": "COc1cc(N2CCN(C)CC2)ccc1Nc1ncc2c(n1)N(C)c1ccccc1C(=O)N2C", "numeric.result": 9}
{"input.smiles": "Cc1ccc(C(=O)Nc2cccc(C(F)(F)F)c2)cc1Nc1nc(-c2cccnc2)nc2c1cnn2C", "numeric.result": 51}
{"input.smiles": "COc1ccc(S(=O)(=O)N(CCO)c2ccccc2CN(C)C/C=C/c2ccc(Cl)cc2)cc1.O=P(O)(O)O", "numeric.result": 43}
{"input.smiles": "CCN1CCN(Cc2ccc(Nc3ncc(F)c(-c4cc(F)c5nc(C)n(C(C)C)c5c4)n3)nc2)CC1.CS(=O)(=O)O", "numeric.result": 51}
{"input.smiles": "COC(=N)c1nc2ccc3ncnc(Nc4ccc(OC)cc4F)c3c2s1", "numeric.result": 17}
{"input.smiles": "O=C(Nc1cccnn1)N1CCC(=Cc2cccc(Oc3ccc(C(F)(F)F)cn3)c2)CC1", "numeric.result": 8}
{"input.smiles": "O=C(Nc1ccc(-c2ccnc(Nc3ccc(N4CCOCC4)cc3)n2)cc1)[C@@H]1CCCN1", "numeric.result": 17}
{"input.smiles": "CN[C@@H]1C[C@H]2O[C@@](C)([C@@H]1OC)n1c3ccccc3c3c4c(c5c6ccccc6n2c5c31)C(=O)NC4", "numeric.result": 28}

###

- Test system: Fibroblast
- measurement.description: Multiplex assay against human fibroblast
- Format: toxicity, cell-based
- recorded.conditions: 24 h, 10 µM, compound concentration 10 uM, replicate 1
metric.name: Total Cell Count

{"compound": "Cc1cc(C)c(S(=O)(=O)N(Cc2ccc(-c3cccc(S(C)(=O)=O)c3)cc2)Cc2ccc(C(F)(F)F)o2)c(C)c1", "numeric.result": 166}
{"compound": "O=C1N/C(=N/c2ccccc2F)S/C1=C\\c1ccc(C(=O)O)cc1", "numeric.result": 181}
{"compound": "Cl.O=c1c2cccn2c2ccccc2n1CCCN1CCC(c2ccc(Cl)cc2)CC1", "numeric.result": 193}
{"compound": "CCN1CCN(c2ccc(Nc3cc(N(C)C(=O)Nc4c(Cl)c(OC)cc(OC)c4Cl)ncn3)cc2)CC1", "numeric.result": 191}
{"compound": "O=C(Nc1ccc(-c2ccnc(Nc3ccc(N4CCOCC4)cc3)n2)cc1)[C@@H]1CCCN1", "numeric.result": 156}
{"compound": "CN1CCC(=C2c3ccccc3CC(=O)c3sccc32)CC1.O=C(O)/C=C/C(=O)O [KETOTIFEN FUMARATE]", "numeric.result": 189}
{"compound": "O=C1NC(=O)C(c2cnc3ccccn23)=C1c1cn2c3c(cc(F)cc13)CN(C(=O)N1CCCCC1)CC2", "numeric.result": 102}
{"compound": "C=C1/C(=C\\C=C2/CCC[C@]3(C)[C@@H]([C@H](C)/C=C/[C@H](C)C(C)C)CC[C@@H]23)C[C@@H](O)C[C@@H]1O", "numeric.result": 304}
{"compound": "COc1cc(N2CCN(C)CC2)ccc1Nc1ncc2c(n1)N(C)c1ccccc1C(=O)N2C", "numeric.result": 140}
{"compound": "CCn1c(=O)c(-c2ccc(-c3cncs3)cc2Cl)cc2cnc(Nc3ccc(N4CCN(C)CC4)cc3)nc21", "numeric.result": 615}
{"compound": "O=C(Cc1ccc(-c2ccc(OCCN3CCOCC3)cc2)cn1)NCc1ccccc1", "numeric.result": 138}
{"compound": "COCC(=O)NC/C=C/c1ccc2ncnc(Nc3ccc(Oc4ccc(C)nc4)c(C)c3)c2c1", "numeric.result": 144}
{"compound": "CCc1cccc(CC)c1NC(=O)c1nn(C)c2c1CCc1cnc(Nc3ccc(C(=O)NC4CCN(C)CC4)cc3OC(F)(F)F)nc1-2", "numeric.result": 161}
{"compound": "CCCS(=O)(=O)Nc1ccc(F)c(C(=O)c2c[nH]c3ncc(Cl)cc23)c1F", "numeric.result": 271}
{"compound": "CN(C)C(=O)C(CCN1CCC(O)(c2ccc(Cl)cc2)CC1)(c1ccccc1)c1ccccc1.Cl [LOPERAMIDE HYDROCHLORIDE]", "numeric.result": 156}
{"compound": "CCOC(=O)c1c(C)[nH]c2ccc3c(c12)CN1CCc2cc(OC)ccc2C1O3 (stereo unspecified)", "numeric.result": 99}

###

- Test system: HEK-293T
- measurement.description: Multiplex assay against HEK293T
- Format: toxicity, cell-based
- recorded.conditions: human, 12 h, 10 µM, compound concentration 10 uM, replicate 1
Catalogue of Population Healthy Nuclei (%) readings, one per entry.
metric.name: Population Healthy Nuclei (%)

{"molecule": "O=C(Nc1ccc(-c2ccnc(Nc3ccc(N4CCOCC4)cc3)n2)cc1)[C@@H]1CCCN1", "target.of.assay": "HEK-293T", "numeric.result": 17}
{"molecule": "Cl.Oc1ccc2c3c1O[C@H]1c4[nH]c5c(c4C[C@@]4(O)[C@@H](C2)N(CC2CC2)CC[C@]314)C[C@@]1(O)[C@H]2Cc3ccc(O)c4c3[C@@]1(CCN2CC1CC1)[C@H]5O4", "target.of.assay": "HEK-293T", "numeric.result": 49}
{"molecule": "COCC(=O)NC/C=C/c1ccc2ncnc(Nc3ccc(Oc4ccc(C)nc4)c(C)c3)c2c1", "target.of.assay": "HEK-293T", "numeric.result": 18}
{"molecule": "CN1CCC(=C2c3ccccc3CC(=O)c3sccc32)CC1.O=C(O)/C=C/C(=O)O [KETOTIFEN FUMARATE]", "target.of.assay": "HEK-293T", "numeric.result": 28}

###

- Test system: U2OS
- measurement.description: Multiplex assay against U2OS
- Assay type: toxicity, cell-based
- recorded.conditions: human, 24 h, 1 µM, compound concentration 1 uM, replicate 1
Catalogue of Population Hoechst High Intensity Objects (%) readings, one per entry.
metric.name: Population Hoechst High Intensity Objects (%)

{"compound": "CCOc1cc(C(=O)N2CCC(N3CCN(C)CC3)CC2)ccc1Nc1ncc2c(n1)N(C1CCCC1)c1ccccc1C(=O)N2C", "target.of.assay": "U2OS", "numeric.result": 4}
{"compound": "CNC(=O)c1ccc(Nc2nc(OC3CCCC3)c3c(-c4ccc5nc(C)oc5c4)c[nH]c3n2)c(OC)c1", "target.of.assay": "U2OS", "numeric.result": 5}
{"compound": "CCc1cccc(CC)c1NC(=O)c1nn(C)c2c1CCc1cnc(Nc3ccc(C(=O)NC4CCN(C)CC4)cc3OC(F)(F)F)nc1-2", "target.of.assay": "U2OS", "numeric.result": 7}
{"compound": "CCCS(=O)(=O)c1nc(NC2CC2)cc(-c2ccc3c(ccn3C3CC(C)(C)NC(C)(C)C3)c2)n1", "target.of.assay": "U2OS", "numeric.result": 10}
{"compound": "CCOC(=O)c1c(C)[nH]c2ccc3c(c12)CN1CCc2cc(OC)ccc2C1O3 (stereo not drawn)", "target.of.assay": "U2OS", "numeric.result": 5}
{"compound": "Cc1cn(-c2cc(NC(=O)c3ccc(C)c(Nc4nccc(-c5cccnc5)n4)c3)cc(C(F)(F)F)c2)cn1 [NILOTINIB]", "target.of.assay": "U2OS", "numeric.result": 6}
{"compound": "Cc1ccc2nc(NCCN)c3ncc(C)n3c2c1.O=C(O)C(F)(F)F.O=C(O)C(F)(F)F", "target.of.assay": "U2OS", "numeric.result": 1}
{"compound": "S=C(NCCCc1c[nH]cn1)NCCCN(Cc1ccc(Cl)c(Cl)c1)c1ccc(Br)cn1", "target.of.assay": "U2OS", "numeric.result": 6}

###

Catalogue of Growth Rate readings, one per entry.
- Tested on: Fibroblast
- measurement.description: Incucyte cell viability with human fibroblast; also: filed as whole numbers so only -1 and 0 and 1 occur
- Format: toxicity, cell-based
- recorded.conditions: 0 h, 10 µM, compound concentration 10 uM, replicate number 1, timepoint 0 hours

{"molecule": "CNC(=O)c1ccccc1Nc1cc(Nc2ccc(N3CCOCC3)cc2OC)ncc1C(F)(F)F [VS-4718]", "Growth Rate": 0}
{"molecule": "CCC(=N\\O)/C(C)=C/c1ccc(F)c(C)c1 [A-226]", "Growth Rate": 0}
{"molecule": "NC(=O)c1cccc(-c2cc(Nc3ccc(OC(F)(F)F)cc3)ncn2)c1", "Growth Rate": 1}
{"molecule": "O=C(Nc1nc2cccc(-c3ccc(CN4CCS(=O)(=O)CC4)cc3)n2n1)C1CC1 [FILGOTINIB]", "Growth Rate": 0}
{"molecule": "COc1ccc(-c2ccc3c(N4CCOCC4)nc(N4C[C@@H](C)O[C@@H](C)C4)nc3n2)cc1CO [Ku-0063794]", "Growth Rate": 1}
{"molecule": "O=C(NOCC1CC1)c1ccc(F)c(F)c1Nc1ccc(I)cc1Cl [CI-1040]", "Growth Rate": 0}
{"molecule": "COC1CCN(c2cccc(-c3cc(NC(C)=O)nc(-n4nc(C)cc4C)n3)n2)CC1", "Growth Rate": 0}
{"molecule": "COC(=N)c1nc2ccc3ncnc(Nc4ccc(OC)cc4F)c3c2s1", "Growth Rate": 0}
{"molecule": "COc1cccc2cc(-c3nc([C@H]4CC[C@H](C(=O)O)CC4)n4ncnc(N)c34)[nH]c12 [OSI-027]", "Growth Rate": 0}
{"molecule": "CN(C)C(=O)c1cc2cnc(Nc3ccc(N4CCNCC4)cn3)nc2n1C1CCCC1 [RIBOCICLIB]", "Growth Rate": 0}
{"molecule": "Cc1oncc1C(=O)Nc1ccc(C(F)(F)F)cc1 [LEFLUNOMIDE]", "Growth Rate": 0}
{"molecule": "CCn1c(=O)c(-c2ccc(-c3cncs3)cc2Cl)cc2cnc(Nc3ccc(N4CCN(C)CC4)cc3)nc21", "Growth Rate": 0}
{"molecule": "O=S(=O)(NC1CCC(c2cc(F)ccc2F)(S(=O)(=O)c2ccc(Cl)cc2)CC1)C(F)(F)F (centres undefined) [MRK-560]", "Growth Rate": 0}
{"molecule": "C=CCn1c(=O)c2cnc(Nc3ccc(N4CCN(C)CC4)cc3)nc2n1-c1cccc(C(C)(C)O)n1 [ADAVOSERTIB]", "Growth Rate": 0}
{"molecule": "Cc1c(NC(=O)c2cc(C(N)=O)nc3cc(F)ccc23)c(C(F)(F)F)nn1Cc1ccc(C(C)(C)C)cc1 [BAY-588]", "Growth Rate": 0}
{"molecule": "CNC[C@H](O)c1cccc(O)c1 [PHENYLEPHRINE]", "Growth Rate": 1}
{"molecule": "CC1(C)C(=O)C(C)(C)c2cc(C(=O)Nc3ccc(C(=O)O)cc3)ccc21", "Growth Rate": 0}
{"molecule": "O=C(Nc1cccnn1)N1CC(C/C=C/c2cncc(Oc3ccc(C(F)(F)F)cn3)n2)C1", "Growth Rate": 0}
{"molecule": "CCc1cccc(CC)c1NC(=O)c1nn(C)c2c1CCc1cnc(Nc3ccc(C(=O)NC4CCN(C)CC4)cc3OC(F)(F)F)nc1-2", "Growth Rate": 0}
{"molecule": "Cc1nc(NC(=O)N2CCC[C@H]2C(N)=O)sc1-c1ccnc(C(C)(C)C(F)(F)F)c1 [ALPELISIB]", "Growth Rate": 1}
{"molecule": "CC(C)NC(=O)c1ccc(C#Cc2ccncc2)cn1", "Growth Rate": 0}
{"molecule": "Cl.O=C(O)Cc1cccc(OCCCN(Cc2cccc(C(F)(F)F)c2Cl)CC(c2ccccc2)c2ccccc2)c1", "Growth Rate": 0}
{"molecule": "Cc1nc(-c2ccc(C(F)(F)F)cc2)sc1COc1ccc([C@H](CC(=O)O)c2ccon2)cc1", "Growth Rate": 0}
{"molecule": "N[C@@H](Cc1cc(I)c(Oc2ccc(O)c(I)c2)c(I)c1)C(=O)O [LIOTHYRONINE]", "Growth Rate": 0}
